Data origin: PubChem BioAssay (NCI)

- Test system: T-47D breast
- assay: NCI tumour cell line growth inhibition, 48 h; in the data active = GI50 below about 0.43 µM; inactive = the rest
*1 amine or outer side, *2 acyl side, *3 side chain or, on linkers, in order; H or OH if unused. Where a SMILES comes first, the peptide text is derived from it. Bridges are numbered along the chain shown (N, C = ends). [ ]: non-standard residue; d: D form. The star is where a group is joined. Phe(3-Me) = Cc1cccc(C[C@H](N)C(=O)O)c1; NH(4-Cl-2-F-phenyl) = Fc1cc(Cl)ccc1N*; Pro(4R-Me) = C[C@H]1CN[C@H](C(=O)O)C1; Hyp = O=C(O)[C@@H]1C[C@@H](O)CN1; aThr = C[C@H](O)[C@H](N)C(=O)O; Pip = O=C(O)[C@@H]1CCCCN1; CO = O=C([*:1])[*:2]
Respond using exactly one of the listed classes: 1.0 = active, 0.0 = inactive

Some solved cases for reference:
* O=C1C(Cl)=C(N2CCOCC2)C(=O)c2ccccc21 | 0.0
* COc1ccc(C(=O)c2cc(OC)c(OC)c(OC)c2)cc1O | 0.0
* Cc1cc(N/N=C/c2nc(-c3ccccc3)oc2C)c2cc(Cl)ccc2n1 | 0.0
* COc1cc(-c2cn(-c3ccc(Cl)cc3)c(=O)[nH]2)cc(OC)c1OC | 0.0

Please let me know the test result on file for Cc1cc(-c2nc3ccc(O)cc3s2)ccc1N .
0.0

Please let me know the test result on file for C#CC[C@H](c1nc2cc(Cl)ccc2c(=O)n1Nc1ccccc1)N(CCCN)C(=O)c1cccc(Cl)c1F .
0.0

Please let me know the test result on file for Cc1cccc(C[C@H](NC(=O)Nc2ccc(Cl)cc2F)C(=O)N[C@@H]2C(=O)N3C[C@H](O)C[C@H]3C(=O)N3CCCC[C@H]3C(=O)N[C@@H](C)C(=O)N3C[C@H](C)C[C@H]3C(=O)O[C@H]2C)c1 ({NH(4-Cl-2-F-phenyl)-CO}-[Phe(3-Me)][aThr][Hyp][Pip]A[Pro(4R-Me)]; ester 2-C) .
1.0

Please let me know the test result on file for NC(=NC1CCCCCC1)c1ccc(N2CCN(c3ccc(C(N)=NC4CCCCCC4)cc3)CC2)cc1 .
0.0

Please let me know the test result on file for C[C@@H]1CCN(C(=O)CC#N)C[C@@H]1N(C)c1ncnc2[nH]ccc12 .
0.0

Please let me know the test result on file for CCc1ccc(CCC(=O)Nc2ncc(Cc3ccccc3)s2)o1 .
0.0

Please let me know the test result on file for O=C(N/N=C/c1ccc(O)cc1O)c1ccc(Nc2ccnc(C(F)(F)F)c2)cc1 .
0.0

---

Measured TGI accompanies every entry in the list below.
- System: MOLT-4 leukemia
- assay: NCI tumour cell line growth inhibition, 48 h

Memo: Cc1ccc(C2=Nc3ccccc3NC(=O)C2)cc1 , reported TGI: > 100 µM

Memo: Cc1ccc(NC(=S)NNC(=O)c2cc(-c3ccccc3)nc3ccccc23)cc1C , reported TGI: 53.3 µM

Memo: O=C(c1ccco1)N1CCN(C(=O)c2ccco2)C1=S , reported TGI: 24.5 µM

Memo: O=C(/C=C/c1ccc(Cl)c(Cl)c1)CCN1CCN(CCC(=O)/C=C/c2ccc(Cl)c(Cl)c2)CC1 , reported TGI: > 100 µM

Memo: O=C(N/N=C/c1cc(Br)cc(Br)c1[O-])c1ccccc1O.O=C(N/N=C/c1cc(Br)cc(Br)c1[O-])c1ccccc1O.[Mn+2] , reported TGI: 7.94 µM

---

Measured TGI accompanies every entry in the list below.
- System: UO-31 renal
- assay: NCI tumour cell line growth inhibition, 48 h
// return numeric value only (unit: µM, not printed)

Take a look at these entries with their results.
- Cc1nc(Nc2ccc(F)c(Cl)c2)sc1C(=O)O: 2.82
- CC(=O)/C=C/c1c[nH]c(=O)[nH]c1=O: 397
- C=C1C(=O)O[C@@H]2C[C@@H](C)[C@@H]3[C@@H](OC4OC(COC(C)=O)C(O)C(O)C4O)CC(=O)[C@@]3(C)C[C@H]12 (stereo not given in full): 3.38
- C/C=C/[C@@H]1O[C@H](CC#C[Si](C)(C)C)[C@@]2(C=O)C(C)=CC[C@H](C(C)C)[C@@H]12: 3.53

Lab note: next molecule to report on.
Memo: CC(=O)O/C(=C(/C#N)C(=O)O)C1C(C(=O)O)C(c2ccccc2[N+](=O)[O-])C=C(c2ccco2)N1c1ccncc1 (stereo not given) , reported TGI: 7.53

---

Measured TGI accompanies every entry in the list below.
- System: NCI-H522 lung
- assay: NCI tumour cell line growth inhibition, 48 h
// return numeric value only (unit: µM, not printed)

Take a look at these entries with their results.
* Cc1cc(S(=O)(=O)NC#N)c(S/C(=N\Nc2ccc([N+](=O)[O-])cc2)c2ccccc2)cc1Cl | 32.6
* CCOC(=O)C1(Cc2ccccc2)CCN(C(=O)c2ccccc2)C2C1C2(Cl)Cl (stereo not given) | 42.5
* CCc1nc2ccc(Cc3ccc(C(=O)NO)cc3)cc2c(=O)n1CCc1ccccc1 | 1.68
* CCC(C)/C=C(C)/C=C/C(=O)c1c(O)c(-c2ccc(O)cc2)c[nH]c1=O (stereo not given) | 10.8
* O=C(/C=C/c1ccc(Cl)c(Cl)c1)CCN1CCN(CCC(=O)/C=C/c2ccc(Cl)c(Cl)c2)CC1 | 31.6
* Cc1cc2c(C(N)=O)cccc2n1-c1nc2c(c(NCc3ccccc3)n1)CCCN2 | 0.359
* O=C1C(Cl)=C(N2CCOCC2)C(=O)c2ccccc21 | 3.23
* COc1cc(-c2cc(-c3nc4ccccc4[nH]3)[nH]n2)cc(OC)c1OC | 8.81
* COc1cc2c(OC)c(c1)CCCC1=CC(=O)C=C(CCC2)C1=O | 46.2
* CN(C)CCCn1c2c3ccccc3ccc2c2oc(=O)c3ccccc3c21 | 10.6

Memo: CC1(C)N=C(N)N=C(N)N1c1cccc(CCCCc2ccc(S(=O)(=O)F)cc2Cl)c1 , reported TGI: 20

Memo: C/C=C/[C@@H]1O[C@H](CC#C[Si](C)(C)C)[C@@]2(C=O)C(C)=CC[C@H](C(C)C)[C@@H]12 , reported TGI: 4.78

Memo: Cc1cc(S(N)(=O)=O)c(S/C(=N\Nc2ccc([N+](=O)[O-])cc2)c2ccc(Cl)cc2)cc1Cl , reported TGI: 11.5

Memo: Cc1ccc(NC(=S)NNC(=O)c2cc(-c3ccccc3)nc3ccccc23)cc1C , reported TGI: 50.8

---

- System: SF-268 CNS
- assay: NCI tumour cell line growth inhibition, 48 h
*1 amine or outer side, *2 acyl side, *3 side chain or, on linkers, in order; H or OH if unused. Where a SMILES comes first, the peptide text is derived from it. Bridges are numbered along the chain shown (N, C = ends). [ ]: non-standard residue; d: D form. The star is where a group is joined. Phe(3-Me) = Cc1cccc(C[C@H](N)C(=O)O)c1; NH(4-Cl-2-F-phenyl) = Fc1cc(Cl)ccc1N*; Pro(4R-Me) = C[C@H]1CN[C@H](C(=O)O)C1; Hyp = O=C(O)[C@@H]1C[C@@H](O)CN1; aThr = C[C@H](O)[C@H](N)C(=O)O; Pip = O=C(O)[C@@H]1CCCCN1; CO = O=C([*:1])[*:2]
parameterMeasured: TGI

Take a look at these entries with their results.
- O=S(=O)(NC(c1ccccc1)(c1cc2ccccc2[nH]1)c1cc2ccccc2n1S(=O)(=O)c1ccccc1)c1ccccc1 (configuration not stated): > 100 µM
- O=[N+]([O-])c1cc(Br)cc2c1[nH]c1ccc(Br)cc12: 45.9 µM
- COc1ccc(C(=O)/C=C/c2cc(C(=O)c3cc(OC)c(OC)c(OC)c3)ccc2OC)cc1: > 100 µM
- O=C(CN=C(CN(c1ccccc1)c1ccccc1)Oc1c([N+](=O)[O-])cc([N+](=O)[O-])cc1[N+](=O)[O-])N1CCNCC1: > 100 µM
- COc1ccc(C2c3cc4c(cc3OC(N3CCOCC3)C2C)OCO4)c(OC)c1 (configuration not stated): 53 µM
- Nc1ncc(-c2ccc(C(F)(F)F)cc2)c(NC2CCCCCC2)n1: > 100 µM

Memo: O=C(c1ccc(NCN2C(=O)CCC2=O)cc1)c1ccc(NCN2C(=O)CCC2=O)cc1 , reported TGI: > 100 µM

Memo: C/C(=N/NC(=S)N(Cc1ccccn1)Cc1ccccn1)c1cnccn1 , reported TGI: 14 µM

Memo: Cc1cccc(C[C@H](NC(=O)Nc2ccc(Cl)cc2F)C(=O)N[C@@H]2C(=O)N3C[C@H](O)C[C@H]3C(=O)N3CCCC[C@H]3C(=O)N[C@@H](C)C(=O)N3C[C@H](C)C[C@H]3C(=O)O[C@H]2C)c1 ({NH(4-Cl-2-F-phenyl)-CO}-[Phe(3-Me)][aThr][Hyp][Pip]A[Pro(4R-Me)]; ester 2-C) , reported TGI: 4.02 µM

Memo: O=C(Nc1ccc2oc(=O)c(C(=O)O)cc2c1)Oc1ccccc1 , reported TGI: > 100 µM

Memo: CSc1nc(-c2cc3c(c(SC)n2)CCC3)cc2c1CCC2 , reported TGI: > 100 µM

Memo: O/N=C1\CC2(N3CCOCC3)CCC1(Cc1ccccc1)CC2 , reported TGI: 76.6 µM

Memo: O=C(NCCCCNCCCNC(=O)C(F)(F)F)C(F)(F)F , reported TGI: > 100 µM
